# selectivity ratio listing for each entry below
test-name: Selectivity index, ratio of IC50 for CHOK1 cells to IC50 for Plasmodium falciparum 3D7
Type: toxicity
condition-parameters: hamster, CHO-K1 cells; read-out: Ratio IC50

Reference set, count: 5
structure-notation | measure | result
CN(C)c1ccc2c(ccc(/C=C/c3cc(Cl)ccc3O)[n+]2C)c1 | selectivity ratio | 68.7
CN(C)c1ccc2c(ccc(/C=C/c3c[nH]c4ccccc34)[n+]2C)c1 | selectivity ratio | 188
CN(C)c1ccc2c(ccc(/C=C/c3ccc(Cl)c(Cl)c3)[n+]2C)c1 | selectivity ratio | 142
CN(C)c1ccc2c(ccc(/C=C/c3c(Cl)cccc3Cl)[n+]2C)c1 | selectivity ratio | 344
CN(C)c1ccc2c(ccc(/C=C/c3cccc(C#N)c3)[n+]2C)c1 | selectivity ratio | 404

Name the reported selectivity ratio value associated with the molecule `CN(C)c1ccc2c(ccc(/C=C/c3ccccc3[N+](=O)[O-])[n+]2C)c1` 20.5

Name the reported selectivity ratio value associated with the molecule `CN(C)c1ccc2c(ccc(/C=C/c3cc(Cl)cc(Cl)c3O)[n+]2C)c1` 22.1
